Target: Tyrosinase (Agaricus bisporus, UniProt O42713)
Sequence (O42713 whole entry): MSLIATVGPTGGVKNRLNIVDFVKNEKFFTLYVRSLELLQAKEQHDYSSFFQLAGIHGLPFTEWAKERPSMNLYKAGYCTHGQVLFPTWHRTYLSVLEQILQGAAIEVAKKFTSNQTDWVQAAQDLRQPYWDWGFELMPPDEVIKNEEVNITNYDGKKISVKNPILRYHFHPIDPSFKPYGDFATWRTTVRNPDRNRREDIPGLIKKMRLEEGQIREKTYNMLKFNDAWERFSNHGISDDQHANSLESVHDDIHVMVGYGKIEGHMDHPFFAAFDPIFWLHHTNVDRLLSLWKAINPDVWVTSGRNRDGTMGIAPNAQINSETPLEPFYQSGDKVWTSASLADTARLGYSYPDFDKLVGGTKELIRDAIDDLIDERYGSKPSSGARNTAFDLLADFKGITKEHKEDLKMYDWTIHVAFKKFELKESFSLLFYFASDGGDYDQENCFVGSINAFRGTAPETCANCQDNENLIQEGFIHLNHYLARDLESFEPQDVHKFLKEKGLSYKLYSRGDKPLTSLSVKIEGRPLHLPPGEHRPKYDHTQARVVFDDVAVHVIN
// values below are reported pIC50
Hey, just a heads up that pIC50 is the negative log base 10 of the concentration in molar.

query: For the compound "O=C(NO)Nc1ccc(NC(=O)NO)cc1" , report pIC50.
result: 4.57

query: Quickly give me recorded pIC50 for "CC(=O)N(O)C(=O)Nc1ccccc1"
result: 3.77

query: Complete the entry with pIC50 for "CN(C(=O)NO)c1ccccc1"
result: 4.80

query: Give the value of pIC50 reported for the following: "CN(O)C(=O)Nc1ccc([N+](=O)[O-])cc1"
result: 3.11

query: Find the measured pIC50 of "COc1ccc(NC(=O)NO)cc1" and report it.
result: 4.49

* * *

Test system: B16
Test: Inhibition of melanin production in mouse B16 cells at 100 uM
Assay type: functional
Calls of active or inactive are those of the source. No cut-off for these calls is given here.
measured attribute: Activity

A selection of reference data follows.
entry smiles: CN(O)C(=O)Nc1ccc(Br)cc1
Activity: inactive
--
entry smiles: CC(C)(C)[Si](C)(C)ONC(=O)Nc1ccccc1
Activity: inactive
--
entry smiles: ONC(=S)Nc1ccccc1
Activity: inactive
--
entry smiles: CONC(=O)Nc1ccccc1
Activity: inactive
--
entry smiles: COc1ccc(NC(=O)NO)cc1
Activity: inactive

query: Look up Activity of "O=C(NO)Nc1ccc(OCc2ccccc2)cc1" and report it.
result: inactive

query: Respond only with Activity recorded for "CCCCOc1ccc(NC(=O)NO)cc1"
result: inactive

query: Give the measured Activity for "CN(O)C(=O)Nc1ccccc1"
result: inactive

query: For the compound "NC(=O)Nc1ccccc1" , report Activity.
result: inactive

query: Supply recorded Activity for "COc1ccc(NC(=O)NO)c(OC)c1" here.
result: inactive

* * *

Tested on: B16
Assay: Inhibition of melanin production in mouse B16 cells at 100 uM
Type: functional
measured attribute: inhibition at 100 µM (%)
// return numeric value only (unit: %, not printed)

entry smiles: O=C(NO)Nc1ccc(O)cc1
assayed system: B16
inhibition at 100 µM, %: 19
//
entry smiles: O=C(NO)Nc1ccc(NC(=O)NO)cc1
assayed system: B16
inhibition at 100 µM, %: 66

query: // fetch inhibition at 100 µM given entry "CONC(=S)Nc1ccc2ccccc2c1"
result: 85

query: Supply recorded inhibition at 100 µM for "O=C(NO)Nc1ccc(C(F)(F)F)cc1" here.
result: 79.3

query: Using the record for "CN(O)C(=O)Nc1ccc([N+](=O)[O-])cc1" , state its measured inhibition at 100 µM.
result: 82

query: Consider the compound "O=C(NO)Nc1ccccc1" and give its recorded inhibition at 100 µM.
result: 78

query: Give reported inhibition at 100 µM value for "O=C(NO)Nc1ccc(Br)cc1"
result: 75.5

query: Let me know recorded inhibition at 100 µM for "O=C(NO)Nc1ccc([N+](=O)[O-])cc1" , thanks.
result: 86

query: Tell me measured inhibition at 100 µM for "OC[C@H]1O[C@@H](Oc2ccc(O)cc2)[C@H](O)[C@@H](O)[C@@H]1O" please.
result: 43.8

* * *

Molecular target: Tyrosinase (Agaricus bisporus)
Sequence (O42713 whole entry): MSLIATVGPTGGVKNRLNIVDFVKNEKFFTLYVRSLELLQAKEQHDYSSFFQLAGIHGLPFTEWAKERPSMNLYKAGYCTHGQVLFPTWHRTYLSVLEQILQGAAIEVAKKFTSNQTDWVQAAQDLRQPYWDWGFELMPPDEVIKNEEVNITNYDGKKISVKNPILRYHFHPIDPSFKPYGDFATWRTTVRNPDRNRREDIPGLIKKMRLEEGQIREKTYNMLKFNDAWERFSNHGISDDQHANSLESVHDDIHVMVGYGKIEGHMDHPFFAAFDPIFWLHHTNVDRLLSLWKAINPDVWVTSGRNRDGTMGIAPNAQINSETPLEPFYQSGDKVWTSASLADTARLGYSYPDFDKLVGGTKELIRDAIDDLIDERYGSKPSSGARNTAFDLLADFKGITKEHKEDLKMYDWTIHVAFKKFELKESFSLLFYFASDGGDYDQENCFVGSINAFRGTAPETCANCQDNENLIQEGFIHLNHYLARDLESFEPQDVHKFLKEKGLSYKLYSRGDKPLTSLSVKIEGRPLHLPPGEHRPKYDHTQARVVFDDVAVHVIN
Below is a list of entries, each paired with its recorded pIC50 value.
The quantity pIC50 is defined as the negative base-10 logarithm of the molar concentration.

molecule: CC(C)(C)[Si](C)(C)ONC(=O)Nc1ccccc1
pIC50: 4.15

molecule: Oc1ccc(O)cc1 [HYDROQUINONE]
pIC50: 4.43

For the next question, use this molecule.
query: Give reported pIC50 for "O=C(NO)Nc1ccc([N+](=O)[O-])cc1" (Tyrosinase (Agaricus bisporus))
result: 5.59
